B1: HDV Ribozyme (parent)
chain: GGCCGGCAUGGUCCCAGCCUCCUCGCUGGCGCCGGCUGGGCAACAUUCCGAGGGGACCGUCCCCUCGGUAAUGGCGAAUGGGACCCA

# Variants of: B1
# assayProcedure: self-cleavage, relative activity (ratio to wild type); higher = more cleavage; co-transcriptional
propertyName: self-cleavage
The answer should be a number; do not append a unit.

Identify self-cleavage associated with the variant C36G C75A 0.151

Identify self-cleavage associated with the variant G6U G10A 0.185

Values were extracted from the RNAGym collection of RNA variant scans (doi:10.7554/elife.80360).
